Tested on: LCLC-97TM1
MEASUREMENT NOTES: relative viability (nuclei count vs DMSO), 5 days (fraction); higher = more cells survive
CONDITION DESCRIPTION: first compound 0.05 µM

| COMPOUND | relative viability |
| --- | --- |
| COc1cc2nccc(Oc3ccc(NC(=O)Nc4cc(C)on4)c(Cl)c3)c2cc1OC [Tivozanib] + Nc1nc2[nH]cc(CCc3ccc(C(=O)N[C@@H](CCC(=O)O)C(=O)O)cc3)c2c(=O)[nH]1 [Pemetrexed] (partner 0.2 µM) | 0.157 |
| COc1cc2nccc(Oc3ccc(NC(=O)Nc4cc(C)on4)c(Cl)c3)c2cc1OC [Tivozanib] + CC(=O)Nc1cccc(-n2c(=O)n(C3CC3)c(=O)c3c(Nc4ccc(I)cc4F)n(C)c(=O)c(C)c32)c1 [Trametinib] (partner 0.02 µM) | 0.206 |
| COc1cc2nccc(Oc3ccc(NC(=O)Nc4cc(C)on4)c(Cl)c3)c2cc1OC [Tivozanib] + Nc1ncn([C@H]2C[C@H](O)[C@@H](CO)O2)c(=O)n1 [Decitabine] (partner 2 µM) | 0.297 |
| Nc1ccn([C@@H]2O[C@H](CO)[C@@H](O)[C@@H]2O)c(=O)n1 [Cytarabine] + C[C@@H](Oc1cc(-c2cnn(C3CCNCC3)c2)cnc1N)c1c(Cl)ccc(F)c1Cl [Crizotinib] (partner 1 µM) | 0.181 |
